EXPERIMENT_NOTES: Cytotoxicity against human SNU-C4 HiBiT-PXR KI cell assessed as cell viability incubated for 72 hrs by celltiter-glo luminescent assay
Assay type: functional
# CC50 listing for each entry below
REPORTED_ENDPOINT: CC50

{"SMILES_STR": "CCC[C@H](CC)Oc1ccc(C(=O)OC)cc1NC(=O)c1nnn(-c2cc(OC)c(OCCCCCCOCCOCC(=O)N[C@H](C(=O)N3C[C@H](O)C[C@H]3C(=O)NCc3ccc(-c4scnc4C)cc3)C(C)(C)C)cc2OC)c1C", "ENDPOINT_RESULT": "> 30 µM"}
{"SMILES_STR": "CCC[C@H](CC)Oc1ccc(C(=O)NCCCCC(=O)N[C@H](C(=O)N2C[C@H](O)C[C@H]2C(=O)NCc2ccc(-c3scnc3C)cc2)C(C)(C)C)cc1NC(=O)c1nnn(-c2cc(OC)ccc2OC)c1C", "ENDPOINT_RESULT": "> 30 µM"}
{"SMILES_STR": "CCC[C@H](CC)Oc1ccc(C(=O)NCCOCCOCC(=O)N[C@H](C(=O)N2C[C@H](O)C[C@H]2C(=O)NCc2ccc(-c3scnc3C)cc2)C(C)(C)C)cc1NC(=O)c1nnn(-c2cc(OC)ccc2OC)c1C", "ENDPOINT_RESULT": "> 30 µM"}
{"SMILES_STR": "CCC[C@H](CC)Oc1ccc(C(=O)NCCOCCOCCOCC(=O)N[C@H](C(=O)N2C[C@H](O)C[C@H]2C(=O)NCc2ccc(-c3scnc3C)cc2)C(C)(C)C)cc1NC(=O)c1nnn(-c2cc(OC)ccc2OC)c1C", "ENDPOINT_RESULT": "> 30 µM"}

====

EXPERIMENT_NOTES: Cytotoxicity against human SNU-C4 HiBiT-PXR KI cell assessed as cell viability at 30 uM incubated for 24 hrs by celltiter-glo luminescent assay relative to control
Assay type: functional
CONDITION_NOTES: read-out: Activity
Each entry below carries its reported viability at 30 µM.

{"SMILES_STR": "CCC[C@H](CC)Oc1ccc(C(=O)NCCOCCOCC(=O)N[C@H](C(=O)N2C[C@H](O)C[C@H]2C(=O)NCc2ccc(-c3scnc3C)cc2)C(C)(C)C)cc1NC(=O)c1nnn(-c2cc(OC)ccc2OC)c1C", "U": "%", "viability at 30 µM": 103}
{"SMILES_STR": "CCC[C@H](CC)Oc1ccc(C(C)(C)C)cc1NC(=O)c1nnn(-c2cc(C)c(OC)cc2OC)c1C", "U": "%", "viability at 30 µM": 99.3}
{"SMILES_STR": "CCC[C@H](CC)Oc1ccc(C(=O)NCCOCCOCCOCC(=O)N[C@H](C(=O)N2C[C@H](O)C[C@H]2C(=O)NCc2ccc(-c3scnc3C)cc2)C(C)(C)C)cc1NC(=O)c1nnn(-c2cc(OC)ccc2OC)c1C", "U": "%", "viability at 30 µM": 98.3}
{"SMILES_STR": "COc1ccc(OC)c(-n2nnc(C(=O)Nc3cc(OCCCCCCOCCOCC(=O)N[C@H](C(=O)N4C[C@H](O)C[C@H]4C(=O)NCc4ccc(-c5scnc5C)cc4)C(C)(C)C)cc(C(C)(C)C)c3)c2C)c1", "U": "%", "viability at 30 µM": 83.2}
{"SMILES_STR": "CCC[C@H](CC)Oc1ccc(C(=O)NCCCCCCCCC(=O)N[C@H](C(=O)N2C[C@H](O)C[C@H]2C(=O)NCc2ccc(-c3scnc3C)cc2)C(C)(C)C)cc1NC(=O)c1nnn(-c2cc(OC)ccc2OC)c1C", "U": "%", "viability at 30 µM": 102}
{"SMILES_STR": "CCC[C@H](CC)Oc1ccc(C(=O)NCCCCC(=O)N[C@H](C(=O)N2C[C@H](O)C[C@H]2C(=O)NCc2ccc(-c3scnc3C)cc2)C(C)(C)C)cc1NC(=O)c1nnn(-c2cc(OC)ccc2OC)c1C", "U": "%", "viability at 30 µM": 101}

====

EXPERIMENT_NOTES: Cytotoxicity against human SNU-C4 HiBiT-PXR KI cell assessed as cell viability incubated for 72 hrs by celltiter-glo luminescent assay
Format: functional
CC50 reference
REPORTED_ENDPOINT: CC50

{"SMILES_STR": "COc1ccc(OC)c(-n2nnc(C(=O)Nc3cc(OCCCCCCOCCOCC(=O)N[C@H](C(=O)N4C[C@H](O)C[C@H]4C(=O)NCc4ccc(-c5scnc5C)cc4)C(C)(C)C)cc(C(C)(C)C)c3)c2C)c1", "REPORTED_ENDPOINT": "CC50", "ENDPOINT_RESULT": "> 30 µM"}
{"SMILES_STR": "COc1cc(OCCCCCCCC(=O)N[C@H](C(=O)N2C[C@H](O)C[C@H]2C(=O)NCc2ccc(-c3scnc3C)cc2)C(C)(C)C)c(C)cc1-n1nnc(S(=O)(=O)c2ccc(C(C)(C)C)cc2)c1C", "REPORTED_ENDPOINT": "CC50", "ENDPOINT_RESULT": "> 30 µM"}
{"SMILES_STR": "COc1cc(OCCOCCOCCOCCOCCOCCC(=O)N[C@H](C(=O)N2C[C@H](O)C[C@H]2C(=O)NCc2ccc(-c3scnc3C)cc2)C(C)(C)C)c(C)cc1-n1nnc(S(=O)(=O)c2ccc(C(C)(C)C)cc2)c1C", "REPORTED_ENDPOINT": "CC50", "ENDPOINT_RESULT": "> 30 µM"}

====

SYSTEM_TESTED: von Hippel-Lindau disease tumor suppressor/Nuclear receptor subfamily 1 group I member 2 (Homo sapiens, UniProt O75469+P40337)
Sequence (O75469 whole entry): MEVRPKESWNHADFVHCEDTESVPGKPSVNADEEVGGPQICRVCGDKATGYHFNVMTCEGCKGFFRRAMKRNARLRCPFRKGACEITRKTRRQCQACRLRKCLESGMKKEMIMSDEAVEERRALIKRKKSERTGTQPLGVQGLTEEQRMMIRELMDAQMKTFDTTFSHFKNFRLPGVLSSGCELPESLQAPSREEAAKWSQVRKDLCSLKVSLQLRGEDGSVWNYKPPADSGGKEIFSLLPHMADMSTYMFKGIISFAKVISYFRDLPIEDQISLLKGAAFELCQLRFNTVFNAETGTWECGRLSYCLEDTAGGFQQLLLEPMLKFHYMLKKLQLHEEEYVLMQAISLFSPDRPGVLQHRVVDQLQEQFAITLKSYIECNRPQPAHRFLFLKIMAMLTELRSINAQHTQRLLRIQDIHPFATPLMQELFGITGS
Sequence (P40337 whole entry): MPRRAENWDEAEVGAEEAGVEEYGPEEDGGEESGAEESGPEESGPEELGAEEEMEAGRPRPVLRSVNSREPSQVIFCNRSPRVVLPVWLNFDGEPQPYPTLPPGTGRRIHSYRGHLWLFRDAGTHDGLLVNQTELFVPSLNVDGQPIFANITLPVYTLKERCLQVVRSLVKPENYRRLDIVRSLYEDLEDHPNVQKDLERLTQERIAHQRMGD
EXPERIMENT_NOTES: PROTAC activity at N-terminal PXR/VHL in human SNU-C4 HiBiT-PXR KI cell assessed as reduction in PXR protein level incubated for 24 hrs by Western blot analysis
Type: cell-based

{"SMILES_STR": "CCC[C@H](CC)Oc1ccc(C(C)(C)C)cc1NC(=O)c1nnn(-c2cc(OC)ccc2OC)c1C", "DC50": "> 30 µM"}
{"SMILES_STR": "COc1cc(OCCOCCOCCOCCOCCC(=O)N[C@H](C(=O)N2C[C@H](O)C[C@H]2C(=O)NCc2ccc(-c3scnc3C)cc2)C(C)(C)C)c(C)cc1-n1nnc(S(=O)(=O)c2ccc(C(C)(C)C)cc2)c1C", "DC50": "> 30 µM"}
{"SMILES_STR": "COc1cc(OCCCCCCOCCOCCOCCOCCOCCOCC(=O)N[C@H](C(=O)N2C[C@H](O)C[C@H]2C(=O)NCc2ccc(-c3scnc3C)cc2)C(C)(C)C)c(C)cc1-n1nnc(S(=O)(=O)c2ccc(C(C)(C)C)cc2)c1C", "DC50": "> 30 µM"}
{"SMILES_STR": "CCC[C@H](CC)Oc1ccc(C(=O)NCCCCCCCCC(=O)N[C@H](C(=O)N2C[C@H](O)C[C@H]2C(=O)NCc2ccc(-c3scnc3C)cc2)C(C)(C)C)cc1NC(=O)c1nnn(-c2cc(OC)ccc2OC)c1C", "DC50": "> 30 µM"}
{"SMILES_STR": "CCC[C@H](CC)Oc1ccc(C(=O)NCCOCCOCCOCCOCC(=O)N[C@H](C(=O)N2C[C@H](O)C[C@H]2C(=O)NCc2ccc(-c3scnc3C)cc2)C(C)(C)C)cc1NC(=O)c1nnn(-c2cc(OC)ccc2OC)c1C", "DC50": "> 30 µM"}
{"SMILES_STR": "COc1cc(OCC(=O)N[C@H](C(=O)N2C[C@H](O)C[C@H]2C(=O)NCc2ccc(-c3scnc3C)cc2)C(C)(C)C)c(C)cc1-n1nnc(S(=O)(=O)c2ccc(C(C)(C)C)cc2)c1C", "DC50": "> 30 µM"}
{"SMILES_STR": "CCC[C@H](CC)Oc1ccc(C(C)(C)C)cc1NC(=O)c1nnn(-c2cc(C)c(OC)cc2OC)c1C", "DC50": "> 30 µM"}
{"SMILES_STR": "COc1cc(OCCOCCC(=O)N[C@H](C(=O)N2C[C@H](O)C[C@H]2C(=O)NCc2ccc(-c3scnc3C)cc2)C(C)(C)C)c(C)cc1-n1nnc(S(=O)(=O)c2ccc(C(C)(C)C)cc2)c1C", "DC50": "> 30 µM"}
{"SMILES_STR": "COc1cc(OCC(=O)NCCOCCOCCOCCOCC(=O)N[C@H](C(=O)N2C[C@H](O)C[C@H]2C(=O)NCc2ccc(-c3scnc3C)cc2)C(C)(C)C)c(C)cc1-n1nnc(S(=O)(=O)c2ccc(C(C)(C)C)cc2)c1C", "DC50": "> 30 µM"}
{"SMILES_STR": "COc1cc(OCCOCCOCCOCCOCCOCCC(=O)N[C@H](C(=O)N2C[C@H](O)C[C@H]2C(=O)NCc2ccc(-c3scnc3C)cc2)C(C)(C)C)c(C)cc1-n1nnc(S(=O)(=O)c2ccc(C(C)(C)C)cc2)c1C", "DC50": "> 30 µM"}
{"SMILES_STR": "CCC[C@H](CC)Oc1ccc(C(=O)NCCOCCOCCOCC(=O)N[C@H](C(=O)N2C[C@H](O)C[C@H]2C(=O)NCc2ccc(-c3scnc3C)cc2)C(C)(C)C)cc1NC(=O)c1nnn(-c2cc(OC)ccc2OC)c1C", "DC50": "> 30 µM"}
{"SMILES_STR": "COc1cc(OCCCCCCOCCOCCOCCCCCC(=O)N[C@H](C(=O)N2C[C@H](O)C[C@H]2C(=O)NCc2ccc(-c3scnc3C)cc2)C(C)(C)C)c(C)cc1-n1nnc(S(=O)(=O)c2ccc(C(C)(C)C)cc2)c1C", "DC50": "> 30 µM"}

Reference source: ChEMBL document CHEMBL6127111
